Source: ChEMBL document CHEMBL5724801

- Test system: HEK-293T
- Assay Remarks: Multiplex assay against HEK293T
- Format: toxicity, cell-based
- Condition: human, 24 h, 1 µM, compound concentration 1 uM
Parameter Measured: Population Normal (%)
A complete answer gives the number followed by the unit.

Compound	Subject Of Test	Population Normal (%)
CC(=O)NCC(=O)N1[C@@H]2CC[C@H]1c1ccc(Nc3ncc(C(F)(F)F)c(NC4CCC4)n3)cc12 [PF-03814735]	HEK-293T	100%
COCCNc1cc(NC(=O)N2CCCc3cc(CN4CCN(C)CC4=O)c(C=O)nc32)ncc1C#N [FGF401]	HEK-293T	100%
O=C(Nc1cc(C(F)(F)F)ccc1N1CCCCC1)c1ccncc1	HEK-293T	100%

Respectfully, I request Population Normal (%) for each entry included below.
1. O=C(Nc1cc(-c2ccccc2)nn1-c1ccccc1F)c1ccc([N+](=O)[O-])cc1
2. Cc1cc(C)c(NC(=O)C2CC3CCC2C3)c(C)c1 (centres undefined)
3. CC(C)(O)c1cnc(N2C[C@@]3(CCC[C@](C)(Cn4cnc5ccc(C#N)cc54)C3)OC2=O)cn1 [GSK2798745]
4. COc1ccccc1N1CCN(CCCCNC(=O)c2ccc3ccccc3c2)CC1.Cl

1: 95%; 2: 100%; 3: 100%; 4: 93%

Respectfully, I request Population Normal (%) for each entry included below.
1. Cn1ncnc1COc1nn2c(-c3cc(F)ccc3F)nnc2cc1C(C)(C)C
2. CN1CCN(c2cc(-c3ccccc3)nc(N)n2)CC1

1: 100%; 2: 95%

###

- Test system: Fibroblast
- Assay Remarks: Multiplex assay against human fibroblast
- Assay type: toxicity, cell-based
- Condition: 48 h, 1 µM, compound concentration 1 uM
What Population Hoechst High Intensity Objects (%) was measured for each of the following?
Answers are plain numbers, in %.

Solved cases below.
Compound	Measured Result
C=CC(=O)Nc1cc(Nc2nccc(-n3cc(CN(C)C)c(-c4ccccc4)n3)n2)c(OC)cc1N1CCOCC1	0
Cc1[nH]nc2ccc(-c3cncc(OCC(N)Cc4c[nH]c5ccccc45)c3)cc12 (centres undefined)	0

Respectfully, I request Population Hoechst High Intensity Objects (%) for each entry included below.
1. CN1CCN(c2ccc(Nc3c4ccccc4nc4ccccc34)cc2)CC1.Cl.Cl.O
2. Cc1cc(Nc2ncc(Cl)c(Nc3ccccc3S(=O)(=O)C(C)C)n2)c(OC(C)C)cc1C1CCNCC1

1
0

###

- System: Fibroblast
- Assay Remarks: Multiplex assay against human fibroblast
- Assay type: toxicity, cell-based
- Condition: 12 h, 1 µM, compound concentration 1 uM
Parameter Measured: Population Normal (%)
Answers are plain numbers, in %.

Solved cases below.
Molecule	Subject Of Test	U	Population Normal (%)
CN(C)Cc1cccc(NC(=C2C(=O)Nc3cc(C(=O)N(C)C)ccc32)c2ccccc2)c1	Fibroblast	%	100
CC(C)CNc1nc(N2CCN(CC3CCCOC3)CC2)ncc1C(=O)NCc1ccccc1 (stereo not given)	Fibroblast	%	100
C[C@H](C[C@H](N)C(=O)O)C(=O)O [2S,4R-4-METHYLGLUTAMATE]	Fibroblast	%	100

Respectfully, I request Population Normal (%) for each entry included below.
1. Cc1cc(C)cc(C(=O)NOCCCCCC(=O)NO)c1
2. Cl.O=S(=O)(c1cccc2c(I)cccc12)N1CCCNCC1
3. Cc1cccc(F)c1C(=O)Nc1cnc(-c2cc3c(cc2Cl)OC(F)(F)O3)cn1 [ZEGOCRACTIN]
4. CC(C)(O)c1cnc(N2C[C@@]3(CCC[C@](C)(Cn4cnc5ccc(C#N)cc54)C3)OC2=O)cn1 [GSK2798745]

[100, 100, 100, 100]

Respectfully, I request Population Normal (%) for each entry included below.
1. Cc1[nH]nc2ccc(-c3cncc(OCC(N)Cc4c[nH]c5ccccc45)c3)cc12 (stereo not given)
2. O=C1CSC(=O)N1C(CCc1ccncc1)COc1ccc(-c2cccc([N+](=O)[O-])c2)cc1 (stereo not given)
3. Cc1cc(C)c(NC(=O)C2CC3CCC2C3)c(C)c1 (stereo not given)
4. O=C(NCc1cccc(O)c1)Nc1nc(-c2ccncc2)cs1
5. CN(C)C(=O)Cn1cc(-c2ccc(-c3nnc4ccccn34)cc2)cn1
6. O=C(Nc1cc(C(F)(F)F)ccc1N1CCCCC1)c1ccncc1
7. COC[C@@H](CC(C)C)NC1=N/C(=C\c2ccc3ncsc3c2)C(=O)N1C
8. CN1CCN(c2ccc(Nc3c4ccccc4nc4ccccc34)cc2)CC1.Cl.Cl.O

1: 100; 2: 100; 3: 100; 4: 100; 5: 94; 6: 100; 7: 100; 8: 98

Respectfully, I request Population Normal (%) for each entry included below.
1. CN(C)CCCn1cc(C2=C(c3c[nH]c4ccccc34)C(=O)NC2=O)c2ccccc21 [GF-109203]
2. Cn1ncnc1COc1nn2c(-c3cc(F)ccc3F)nnc2cc1C(C)(C)C
3. COc1cc(/C=C(\C#N)C(=O)Nc2nnc(C(F)(F)F)s2)ccc1OCc1ccc(C(F)(F)F)cc1C(F)(F)F
4. Nc1nccc(-c2ccn3c(N)nccc23)n1
5. Cc1c(Cc2ccc3ccccc3n2)c2cc(F)ccc2n1CC(=O)O [TIMAPIPRANT]

1: 100; 2: 100; 3: 100; 4: 100; 5: 94

###

- Test system: U2OS
- Assay Remarks: Multiplex assay against U2OS
- Assay type: toxicity, cell-based
- Condition: human, 12 h, 10 µM, compound concentration 10 uM
Parameter Measured: Population Normal (%)
One number for each entry, in %.

Solved cases below.
Compound	U	Population Normal (%)
N#Cc1ccnc(Nc2cc(C3CCN(C4COC4)CC3)cc(N3CCC(F)(F)C3)n2)c1	%	100
Cl.O=S(=O)(c1cccc2c(I)cccc12)N1CCCNCC1	%	100
Cc1[nH]nc2ccc(-c3cncc(OCC(N)Cc4c[nH]c5ccccc45)c3)cc12 (stereo not given)	%	100

Respectfully, I request Population Normal (%) for each entry included below.
1. Nc1nccc(-c2ccn3c(N)nccc23)n1
2. COC(=O)c1ccc2c(c1)NC(=O)/C2=C(\Nc1ccc(N(C)C(=O)CN2CCN(C)CC2)cc1)c1ccccc1

1: 100; 2: 100

###

- Tested on: HEK-293T
- Assay Remarks: Multiplex assay against HEK293T
- Format: toxicity, cell-based
- Condition: human, 12 h, 10 µM, compound concentration 10 uM
Binary call on Population Fragmented Nuclei (%): 1 (yes) from 8% upward, 0 (no) beneath that.

Compound	Assigned Category
CC(/C=C1\SC(=S)N(CCCC(=O)Nc2ccc(C(=O)O)c(O)c2)C1=O)=C\c1ccccc1	0 (no)
OCCCNc1cc(-c2ccnc(Nc3cccc(Cl)c3)n2)ccn1	1 (yes)
CCCCCC(O)/C=C/[C@H]1C(=O)CC(O)C1C/C=C\CCCC(=O)O (stereo partly specified)	0 (no)
c1cc(OCCCN2CCCCC2)ccc1CN1CCCCC1	0 (no)

We next turn to a different compound, shown below.
Dear colleague, could you confirm whether "COc1c(Nc2ccc(S(C)(=O)=O)nc2C)ncnc1OC1CCN(C(=O)OC(C)C)CC1" has Population Fragmented Nuclei (%) at or above 8%?
0 (no)

###

What Population Normal (%) was measured for each of the following?
- System: Fibroblast
- Assay Remarks: Multiplex assay against human fibroblast
- Type: toxicity, cell-based
- Condition: 24 h, 1 µM, compound concentration 1 uM
Answers are plain numbers, in %.

Solved cases below.
Compound	Population Normal (%)
CCCN1CCC[C@@H]2Cc3n[nH]cc3C[C@H]21.Cl [QUINPIROLE HYDROCHLORIDE]	98
Nc1nccc(-c2ccn3c(N)nccc23)n1	100
O=C1CSC(=O)N1C(CCc1ccncc1)COc1ccc(-c2cccc([N+](=O)[O-])c2)cc1 (stereo unspecified)	100
CN(C)C/C=C/C(=O)Nc1ccc(C(=O)N2CCCC(Nc3ncc(Cl)c(-c4c[nH]c5ccccc45)n3)C2)cc1 (stereo unspecified)	92
C[C@H](C[C@H](N)C(=O)O)C(=O)O [2S,4R-4-METHYLGLUTAMATE]	100

Respectfully, I request Population Normal (%) for each entry included below.
1. N#Cc1ccnc(Nc2cc(C3CCN(C4COC4)CC3)cc(N3CCC(F)(F)C3)n2)c1
2. CCOC(=O)c1cnn(-c2ccc(NC(=O)C(Cl)=C(Cl)Cl)cc2)c1C(F)(F)F

[100, 100]

###

What Population Normal (%) was measured for each of the following?
- Test system: U2OS
- Assay Remarks: Multiplex assay against U2OS
- Format: toxicity, cell-based
- Condition: human, 24 h, 10 µM, compound concentration 10 uM
Numbers only, in %.

Compound	U	Population Normal (%)
O=C(NCc1cccc(O)c1)Nc1nc(-c2ccncc2)cs1	%	100
CCOC(=O)c1cnn(-c2ccc(NC(=O)C(Cl)=C(Cl)Cl)cc2)c1C(F)(F)F	%	100
CC(=O)Nc1cccc2c1c(Sc1ccc(Cl)cc1)c(C)n2CC(=O)O [AZD1981]	%	99
CN(C)CCCn1cc(C2=C(c3c[nH]c4ccccc34)C(=O)NC2=O)c2ccccc21 [GF-109203]	%	100
Cc1cc(Nc2ncc(Cl)c(Nc3ccccc3S(=O)(=O)C(C)C)n2)c(OC(C)C)cc1C1CCNCC1 [CERITINIB]	%	100
CN1CCN(c2nc3cc(C(F)(F)F)ccc3n3cccc23)CC1.O=C(O)/C=C\C(=O)O.O=C(O)/C=C\C(=O)O	%	96

Respectfully, I request Population Normal (%) for each entry included below.
1. COc1ccccc1N1CCN(CCCCNC(=O)c2ccc3ccccc3c2)CC1.Cl
2. COc1cc(/C=C(\C#N)C(=O)Nc2nnc(C(F)(F)F)s2)ccc1OCc1ccc(C(F)(F)F)cc1C(F)(F)F

1. 93
2. 100

Quick check: Population Normal (%) on U2OS, item "Cl.O=S(=O)(c1cccc2c(I)cccc12)N1CCCNCC1" ?
100
